biological target: Epidermal growth factor receptor (Homo sapiens, UniProt P00533, L858R/T790M); assay: Inhibition of recombinant EGFR (unknown origin) T790M/L858R double mutant preincubated for 30 mins followed by poly (Glu-Tyr) biotinylated peptide substrate addition measured after 30 mins in presence of ATP by ELISA
Sequence (P00533 25-1210 T790M/L858R limits assumed): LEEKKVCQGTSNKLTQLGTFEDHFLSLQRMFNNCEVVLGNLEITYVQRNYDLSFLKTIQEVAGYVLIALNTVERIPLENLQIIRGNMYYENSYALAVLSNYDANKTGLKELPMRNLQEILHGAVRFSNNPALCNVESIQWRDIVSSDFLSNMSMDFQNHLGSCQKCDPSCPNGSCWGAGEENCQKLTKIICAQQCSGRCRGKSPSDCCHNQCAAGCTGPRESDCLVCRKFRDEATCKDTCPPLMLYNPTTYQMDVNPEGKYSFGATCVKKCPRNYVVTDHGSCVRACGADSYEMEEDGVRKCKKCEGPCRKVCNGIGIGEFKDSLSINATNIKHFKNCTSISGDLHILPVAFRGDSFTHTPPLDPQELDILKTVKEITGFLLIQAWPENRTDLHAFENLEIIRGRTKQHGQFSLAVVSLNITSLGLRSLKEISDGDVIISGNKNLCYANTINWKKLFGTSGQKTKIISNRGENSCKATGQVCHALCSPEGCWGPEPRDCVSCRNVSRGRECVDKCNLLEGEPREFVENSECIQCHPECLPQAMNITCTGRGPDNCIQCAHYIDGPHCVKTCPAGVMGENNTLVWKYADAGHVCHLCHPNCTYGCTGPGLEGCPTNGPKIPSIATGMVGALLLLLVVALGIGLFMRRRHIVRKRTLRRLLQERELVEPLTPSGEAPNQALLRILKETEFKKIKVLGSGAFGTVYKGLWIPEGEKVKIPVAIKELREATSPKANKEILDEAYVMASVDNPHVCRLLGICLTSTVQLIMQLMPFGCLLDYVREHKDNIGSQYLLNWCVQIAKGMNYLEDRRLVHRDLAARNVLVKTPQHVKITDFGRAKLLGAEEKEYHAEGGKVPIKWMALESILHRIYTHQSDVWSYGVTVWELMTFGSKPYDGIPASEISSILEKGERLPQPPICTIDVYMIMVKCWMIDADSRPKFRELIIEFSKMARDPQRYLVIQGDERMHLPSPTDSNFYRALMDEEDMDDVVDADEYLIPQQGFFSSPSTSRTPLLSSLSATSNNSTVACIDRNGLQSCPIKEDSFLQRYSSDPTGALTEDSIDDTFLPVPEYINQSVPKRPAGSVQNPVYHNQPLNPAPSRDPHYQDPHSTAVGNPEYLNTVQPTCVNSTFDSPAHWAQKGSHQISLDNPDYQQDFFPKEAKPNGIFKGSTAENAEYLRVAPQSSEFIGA
Below is a list of entries, each paired with its recorded pIC50 value.
Note on pIC50: it is the negative log10 of concentration, concentration in mol/L.

Some molecules with recorded pIC50:
- mol: "COc1ccc(-c2c3c4cc(OCCCN(C)C)c(OCCCN(C)C)cc4oc(=O)c3n3ccc4cc(O)c(OC)cc4c23)cc1O"
  assay_system: "Epidermal growth factor receptor (Homo sapiens, UniProt P00533, L858R/T790M)"
  pIC50: 8.05
- mol: "COc1ccc(-c2c3c4cc(OCCN(C)C)c(OCCN(C)C)cc4oc(=O)c3n3ccc4cc(O)c(OC)cc4c23)cc1O"
  assay_system: "Epidermal growth factor receptor (Homo sapiens, UniProt P00533, L858R/T790M)"
  pIC50: 6.63

Now for another entry.
Fill in the blank: the reported pIC50 of COc1ccc(-c2c3c4cc(O)c(OC)cc4oc(=O)c3n3ccc4cc(O)c(OC)cc4c23)cc1O is ____.
6.40

* * *

Below is a list of entries, each paired with its recorded IC50 value.
biological target: Epidermal growth factor receptor (Homo sapiens, UniProt P00533, L858R/T790M); test: Inhibition of recombinant EGFR (unknown origin) T790M/L858R double mutant preincubated for 30 mins followed by poly (Glu-Tyr) biotinylated peptide substrate addition measured after 30 mins in presence of ATP by ELISA
Use nM as the unit, but write only the number.

- mol: "COc1ccc(-c2c3c4cc(OC)c(OCCCNC(=N)N)cc4oc(=O)c3n3ccc4cc(O)c(OC)cc4c23)cc1O"
  observation_type: "IC50"
  recorded_value: 39

Fill in the blank: the reported IC50 of COc1ccc(-c2c3c4cc(OC)c(OCCN(C)C)cc4oc(=O)c3n3ccc4cc(O)c(OC)cc4c23)cc1O is ____.
560

Fill in the blank: the reported IC50 of COc1ccc(-c2c3c4cc(O)c(OCCCN(C)C)cc4oc(=O)c3n3ccc4cc(O)c(OC)cc4c23)cc1O is ____.
82.6

Fill in the blank: the reported IC50 of COc1ccc(-c2c3c4cc(OC)c(OCCCN(C)C)cc4oc(=O)c3n3ccc4cc(O)c(OC)cc4c23)cc1O is ____.
188
